# target desc: mouse 11β-HSD1 (Mus musculus)
# Construct: 100 ug/ml human/mouse liver microsomes; from tissue; host or cells: mouse liver microsomes
# Sequence (P50172 whole entry): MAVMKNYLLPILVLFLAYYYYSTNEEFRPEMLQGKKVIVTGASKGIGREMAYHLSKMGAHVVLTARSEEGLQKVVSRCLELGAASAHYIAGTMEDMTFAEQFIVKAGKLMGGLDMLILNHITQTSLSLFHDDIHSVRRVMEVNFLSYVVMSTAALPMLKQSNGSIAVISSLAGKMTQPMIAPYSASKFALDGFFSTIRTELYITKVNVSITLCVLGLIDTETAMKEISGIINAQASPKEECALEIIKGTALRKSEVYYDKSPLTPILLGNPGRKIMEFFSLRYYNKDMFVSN
# method summary: Enzyme activity analysis on mouse 11β-HSD1 (HTRF cortisol, liver microsomes)
# Type: biochemical
# condition parameters: second value of cell
parameter: IC50 (µM)
Answers are plain numbers, in µM.

Query: Please report the recorded IC50 for CC(C)(NS(=O)(=O)c1ccccc1C(F)(F)F)C(=O)NC1C2CC3CC1CC(C(N)=O)(C3)C2 (stereo not shown) [compound 108] .
Result: 0.029

For every listed record, write down its IC50.
1. NC(=O)C12CC3CC(C1)C(NC(=O)C1(NS(=O)(=O)c4ccccc4Cl)CC1)C(C3)C2 (stereo not shown) [compound 132]
2. NC(=O)C12CC3CC(C1)C(NC(=O)C1(NS(=O)(=O)c4ccccc4Cl)CCCCC1)C(C3)C2 (stereo not shown) [compound 179]
3. CN(C(C)(C)C(=O)NC1C2CC3CC1CC(O)(C3)C2)S(=O)(=O)c1cccc(Cl)c1Cl (stereo not shown) [compound 203]

Result:
1: 0.148; 2: 0.037; 3: 0.039
